# Tested on: GAK;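 also: KINOMEscan kinase panel screen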
# RUN CONDITIONS: concentration: 1 μM, replicates: in singlicate; n = 1
Readings of %Inh for the listed compounds
Give the quantity in %, number only.

// below: answered compounds
- CC(=O)c1c(C)c2cnc(Nc3ccc(N4CCNCC4)cn3)nc2n(C2CCCC2)c1=O: 0
- CN1c2ccc(-c3ccc(C(N)=O)cc3)cc2-c2[nH]ncc2S1(=O)=O: 6
- O=C1NC(=O)C(c2ccc(Cl)cc2)=C1Nc1ccc(O)cc1: 0
- Cc1ccc(NC(=O)c2ccc(Cl)cc2)cc1-c1ccc(C(=O)Nc2ccncc2)cc1: 1
- CC(C)c1cc(-c2ccc3c(N)n[nH]c3c2)nc(N)n1: 13
- CS(=O)(=O)CCNCc1nc(-c2ccc3ncnc(Nc4ccc5c(cnn5Cc5ccccc5)c4)c3c2)cs1.Cl.Cl: 0

Query: Quickly give me recorded %Inh for CNc1nc(-c2ccc3c(N)n[nH]c3c2)cc(N2C[C@@H](C(=O)NC3CCCCC3)OC[C@H]2C)n1
Reply: 0

Query: Determine its reported %Inh: COc1cccc(NC(=O)Nc2ccc(C)c(-c3ccc(C(=O)Nc4ccncc4)cc3)c2)c1
Reply: 0

Query: Please indicate %Inh recorded for O=c1cc(N2CCOCC2)nc2n(Cc3cccc(Cl)c3Cl)c3ccccc3n12
Reply: 19

Query: Report measured %Inh; entry is CC(=O)c1cccc(NC(=O)NC2CCN(c3ccnc(Nc4ccc(F)cc4)n3)C2)c1 (stereo not drawn)
Reply: 5

Query: For CCc1ccc(-c2ccc3c(c2)-c2n[nH]cc2S(=O)(=O)N3C)cc1 , write its %Inh.
Reply: 0

Query: Dear colleague, please send me the reported %Inh for COc1ccc(Nc2nccc(-c3ccc(NC(=O)c4cc5cc(F)ccc5[nH]4)cc3)n2)cc1 when you can.
Reply: 0

Query: Give a short answer stating reported %Inh for Cc1cnc(N)c(/C=C/c2cncc(C(=O)NCCc3ccc(Cl)cc3Cl)c2)c1.Cl .
Reply: 29

Query: Provide measured %Inh value, entry: O=C(Nc1n[nH]c2nc(-c3cccs3)c(Br)cc12)C1CC1
Reply: 0

Query: Supply measured %Inh of CNC(=O)c1ccc(C)c(-n2c(C)cc(OCc3ccc(F)cc3F)c(Br)c2=O)c1 in your reply.
Reply: 0

Query: Return %Inh (reported value) for this compound: Cc1ccccc1-c1cc(-c2c[nH]nc2-c2ccccn2)ccn1
Reply: 11

Query: Note %Inh for the compound shown: Cn1cncc1C(=O)NC1CCN(c2ccnc(Nc3ccc(F)cc3)n2)C1 (stereo not drawn)
Reply: 0

Query: Please look at this compound and report its %Inh: Cn1cncc1-c1cc2c(Nc3ccc(OCc4ccccc4)cc3)ncnc2cn1
Reply: 0
